target_or_system: T1, human VEGF (hVEGF) (human, UniProt P15692 181-395)
T1 construct: also called VEGF-A
T1 sequence: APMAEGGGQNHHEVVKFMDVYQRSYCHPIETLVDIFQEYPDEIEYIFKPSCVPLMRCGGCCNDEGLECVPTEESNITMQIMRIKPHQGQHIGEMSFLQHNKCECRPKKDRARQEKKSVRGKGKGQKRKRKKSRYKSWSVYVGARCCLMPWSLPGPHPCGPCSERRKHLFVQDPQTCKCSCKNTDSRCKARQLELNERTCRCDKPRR
experimental_protocol: BIACORE SPR on immobilised hVEGF; label beside the mutation on the structure of the VEGF-bound G6 Fab (PDB 2FJG)
measure_name: fold change in binding affinity (Kd) compared to G6.31 (x)
Output spec: scalar in x, unitless text.

The examples below pair each entry with its known result.
binder: G6.31 HC-N82aR (Fab, name in Kabat numbering, V domains shown, Fab) VH: EVQLVESGGGLVQPGGSLRLSCAASGFTISDYWIHWVRQAPGKGLEWVAGITPAGGYTYYADSVKGRFTISADTSKNTAYLQMRSLRAEDTAVYYCARFVFFLPYAMDYWGQGTLVTVSS VL: DIQMTQSPSSLSASVGDRVTITCRASQDVSTAVAWYQQKPGKAPKLLIYSASFLYSGVPSRFSGSGSGTDFTLTISSLQPEDFATYYCQQGYGNPFTFGQGTKVEIK
reported: 7
//
binder: G6.31 HC-A40E (Fab, name in Kabat numbering, V domains shown, Fab) VH: EVQLVESGGGLVQPGGSLRLSCAASGFTISDYWIHWVRQEPGKGLEWVAGITPAGGYTYYADSVKGRFTISADTSKNTAYLQMNSLRAEDTAVYYCARFVFFLPYAMDYWGQGTLVTVSS VL: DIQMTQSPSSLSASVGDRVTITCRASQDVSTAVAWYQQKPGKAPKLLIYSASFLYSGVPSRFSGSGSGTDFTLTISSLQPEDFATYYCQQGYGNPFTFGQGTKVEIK
reported: 4

Next, consider the following binder.
Incoming: I'd like to know its fold change in binding affinity (Kd) compared to G6.31. The binder in question is G6.31 HC-Q81S (Fab, name in Kabat numbering, V domains shown, Fab) VH: EVQLVESGGGLVQPGGSLRLSCAASGFTISDYWIHWVRQAPGKGLEWVAGITPAGGYTYYADSVKGRFTISADTSKNTAYLSMNSLRAEDTAVYYCARFVFFLPYAMDYWGQGTLVTVSS VL: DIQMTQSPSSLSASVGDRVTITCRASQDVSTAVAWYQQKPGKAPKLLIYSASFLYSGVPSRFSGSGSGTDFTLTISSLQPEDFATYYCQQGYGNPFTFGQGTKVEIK
Outgoing: 3
